For each entry below, report its self-cleavage kobs at 10000 uM GlcN6P value.
B1: glmS ribozyme (parent)
chain: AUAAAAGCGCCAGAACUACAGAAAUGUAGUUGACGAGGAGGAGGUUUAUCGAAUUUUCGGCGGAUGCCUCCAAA

Variants of: B1
Assay: self-cleavage kobs at 10000 uM GlcN6P; higher = faster cleavage; RNA array
Details: with glucosamine-6-phosphate
Fewer inactive variants are shown than the library holds.
Give bare numbers, in s⁻¹.

Answer for every listed entry: what is its self-cleavage kobs at 10000 uM GlcN6P? The entries follow.
1. A12G C58G
2. U54G U57A C67G
3. A12U G41A U54C
4. U47G U55A C68G C71G
5. U31G G66C
6. C67U C71G
7. C11U A14U C16G

## Output
1. 9.48e-05
2. 7.25e-05
3. 0.000963
4. 4.14e-05
5. 0.000146
6. 5.12e-05
7. 0.000164

Quick request: self-cleavage kobs at 10000 uM GlcN6P for each listed item, please.
1. C11U A12G A14U
2. U56A A64U
3. U54A C58U
4. U54C U57G
5. G7A C70U

## Output
1. 0.000156
2. 4.52e-05
3. 6.81e-05
4. 6.43e-05
5. 4.14e-05

All values here come from the supplement of paper PMC7125110.
